Biological target: DNA topoisomerase 2-alpha (Homo sapiens) (UniProt P11388)
Sequence (P11388 whole entry): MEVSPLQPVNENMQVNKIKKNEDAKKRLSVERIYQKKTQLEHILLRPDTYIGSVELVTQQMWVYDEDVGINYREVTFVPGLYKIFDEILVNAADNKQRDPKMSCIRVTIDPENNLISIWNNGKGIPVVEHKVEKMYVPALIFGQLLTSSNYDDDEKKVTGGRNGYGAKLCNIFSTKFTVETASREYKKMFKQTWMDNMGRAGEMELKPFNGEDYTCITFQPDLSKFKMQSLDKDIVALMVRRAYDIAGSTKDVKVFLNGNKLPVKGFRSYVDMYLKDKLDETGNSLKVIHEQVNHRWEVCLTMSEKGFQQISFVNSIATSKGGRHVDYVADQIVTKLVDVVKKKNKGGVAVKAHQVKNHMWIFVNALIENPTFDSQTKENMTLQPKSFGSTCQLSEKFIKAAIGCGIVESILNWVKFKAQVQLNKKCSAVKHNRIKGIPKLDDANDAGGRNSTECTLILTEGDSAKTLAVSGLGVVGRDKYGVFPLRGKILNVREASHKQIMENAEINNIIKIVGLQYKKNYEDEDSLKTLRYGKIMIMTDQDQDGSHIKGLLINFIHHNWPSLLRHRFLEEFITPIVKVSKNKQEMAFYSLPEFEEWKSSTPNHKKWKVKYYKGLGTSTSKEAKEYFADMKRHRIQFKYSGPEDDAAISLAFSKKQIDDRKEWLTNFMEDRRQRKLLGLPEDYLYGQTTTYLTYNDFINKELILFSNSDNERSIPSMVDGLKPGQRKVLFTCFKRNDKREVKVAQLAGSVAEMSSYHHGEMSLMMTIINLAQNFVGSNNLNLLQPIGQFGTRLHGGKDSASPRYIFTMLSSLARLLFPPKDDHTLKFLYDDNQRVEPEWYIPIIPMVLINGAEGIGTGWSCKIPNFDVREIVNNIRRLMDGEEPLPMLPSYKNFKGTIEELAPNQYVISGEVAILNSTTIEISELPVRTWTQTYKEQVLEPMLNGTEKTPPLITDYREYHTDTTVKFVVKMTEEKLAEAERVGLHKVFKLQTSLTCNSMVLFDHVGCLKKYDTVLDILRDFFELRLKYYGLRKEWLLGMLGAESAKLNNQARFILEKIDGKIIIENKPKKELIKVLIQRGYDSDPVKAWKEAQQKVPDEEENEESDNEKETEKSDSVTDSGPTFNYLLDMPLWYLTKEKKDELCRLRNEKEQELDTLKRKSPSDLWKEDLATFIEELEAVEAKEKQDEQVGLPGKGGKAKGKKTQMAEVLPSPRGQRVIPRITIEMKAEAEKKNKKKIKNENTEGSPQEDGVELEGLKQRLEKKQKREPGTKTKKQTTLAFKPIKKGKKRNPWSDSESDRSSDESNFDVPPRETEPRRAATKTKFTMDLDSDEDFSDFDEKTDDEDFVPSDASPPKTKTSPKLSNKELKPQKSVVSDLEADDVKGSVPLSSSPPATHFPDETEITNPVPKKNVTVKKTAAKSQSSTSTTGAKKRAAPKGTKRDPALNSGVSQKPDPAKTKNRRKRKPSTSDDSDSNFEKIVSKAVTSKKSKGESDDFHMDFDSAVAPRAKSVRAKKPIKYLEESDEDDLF
Assay: Inhibition of human recombinant topoisomerase 2alpha assessed as reduction in pBR322 DNA relaxation at 100 uM incubated for 30 mins by DNA gel electrophoresis
Calls of active or inactive are those of the source. No cut-off for these calls is given here.
// classify into true (1) = active, false (0) = inactive

COMPOUND | CATEGORY
O=Cc1cc(-c2ccc3cc(O)ccc3c2)ccc1O | true (1)

Prompt line: What was the test verdict on OCCc1cc(-c2ccc3cc(O)ccc3c2)ccc1O ?
Response line: false (0)

Prompt line: // param item: O=Cc1ccc(O)c(-c2ccc3cc(O)ccc3c2)c1 ; yields the recorded call
Response line: true (1)

Prompt line: Tell me the recorded outcome of this test for O=[N+]([O-])c1ccc(-c2ccc3cc(O)ccc3c2)cc1C(F)(F)F .
Response line: true (1)

Prompt line: In this assay, the call recorded for COC(=O)c1ccc(O)c(-c2ccc3cc(O)ccc3c2)c1 was what?
Response line: true (1)

Prompt line: Could you please tell me the result logged for Cc1cc(-c2ccc3cc(O)ccc3c2)ccc1N in this assay?
Response line: true (1)

Prompt line: Outcome? Oc1ccc2cc(-c3ccc(O)c(O)c3)ccc2c1
Response line: true (1)

Prompt line: Each compound tested received a call. Report the one for CC(=O)c1cc(-c2ccc3cc(O)ccc3c2)cc([N+](=O)[O-])c1O .
Response line: true (1)

Prompt line: // outcome(item) with item = COC(=O)c1ccc(C)c(-c2ccc3cc(O)ccc3c2)c1
Response line: true (1)

Prompt line: Each compound tested received a call. Report the one for OCc1cc(-c2ccc3cc(O)ccc3c2)ccc1O .
Response line: true (1)

Prompt line: Fill in: this test's call for COc1cc([C@@H]2c3cc4c(cc3[C@@H](O[C@@H]3O[C@@H]5CO[C@@H](C)O[C@H]5[C@H](O)[C@H]3O)[C@H]3COC(=O)[C@H]23)OCO4)cc(OC)c1O [ETOPOSIDE] is ___
Response line: true (1)

Prompt line: What is the recorded call for this compound in the test? COc1cc(-c2ccc3cc(O)ccc3c2)cc(C=O)c1O
Response line: true (1)

---

Test system: A549
Assay: Cytotoxicity against human A549 cells after 72 hrs by sulforhodamine B assay
Assay type: functional, cell-based
Details: A549, 72 h
PROPERTY: IC50 (µM)
Write the answer as a number in µM, unit excluded.

Use these answered entries as a reference point.
COMPOUND | UNIT_SYMBOL | IC50
COc1cc([C@@H]2c3cc4c(cc3[C@@H](O[C@@H]3O[C@@H]5CO[C@@H](C)O[C@H]5[C@H](O)[C@H]3O)[C@H]3COC(=O)[C@H]23)OCO4)cc(OC)c1O [ETOPOSIDE] | µM | 13.8
O=Cc1ccc(O)c(-c2ccc3cc(O)ccc3c2)c1 | µM | 10.5

Prompt line: Which IC50 is listed for COc1ccc2cc(-c3cc(C=O)ccc3O)ccc2c1 ?
Response line: 14.1

---

System: A549
Test: Cytotoxicity against human A549 cells after 72 hrs by sulforhodamine B assay
Format: functional, cell-based
Conditions: A549, 72 h
PROPERTY: IC50 (µM)
// units = µM; emit number, no label

Prompt line: Need IC50, item COC(=O)c1ccc(O)c(-c2ccc3cc(O)ccc3c2)c1
Response line: 11.6

Prompt line: Please report the recorded IC50 for OCc1cc(-c2ccc3cc(O)ccc3c2)ccc1O .
Response line: 2.8

Prompt line: # IC50 lookup, item OCCc1cc(-c2ccc3cc(O)ccc3c2)ccc1O
Response line: 0.6

Prompt line: Look up IC50: OCc1cccc(-c2ccc3cc(O)ccc3c2)c1
Response line: 9.1

Prompt line: Which IC50 value is on record for Oc1ccc(-c2ccc3cc(O)ccc3c2)cc1 ?
Response line: 11.4

Prompt line: Name the reported IC50 value associated with the molecule COc1cc(-c2ccc3cc(O)ccc3c2)cc(C=O)c1O
Response line: 1.1

Prompt line: Reported IC50, molecule Nc1ccc(-c2ccc3cc(O)ccc3c2)cc1 : ____
Response line: 19.8

Prompt line: Consider the molecule shown here: Cc1cc(-c2ccc3cc(O)ccc3c2)ccc1N What is its recorded IC50?
Response line: 3.5

---

Test system: A549
Assay: Cytotoxicity against human A549 cells after 72 hrs by sulforhodamine B assay
Assay type: functional, cell-based
Details: A549, 72 h
// reported IC50 for each item listed

For orientation, consider the following solved cases.
MOLECULE | IC50
Oc1ccc2cc(-c3ccc(O)c(O)c3)ccc2c1 | 11.5 µM
COc1ccc2cc(-c3ccc(OC)c(C=O)c3)ccc2c1 | > 20 µM
COc1ccc2cc(-c3ccc(O)c(C(=O)O)c3)ccc2c1 | > 20 µM

Prompt line: Name the reported IC50 value associated with the molecule O=[N+]([O-])c1ccc(-c2ccc3cc(O)ccc3c2)cc1C(F)(F)F
Response line: 3.5 µM

Prompt line: Consider the molecule COc1ccc2cc(-c3ccc(CC(=O)O)cc3)ccc2c1 and give its measured IC50.
Response line: > 20 µM

Prompt line: Could you share which IC50 value was measured for COc1ccc2cc(-c3ccc(C(C)O)cc3)ccc2c1 (stereo unspecified) ?
Response line: > 20 µM

---

Biological target: DNA topoisomerase (Bos taurus)
Assay: Inhibition of calf thymus DNA topoisomerase 1 assessed as reduction in pBR322 DNA relaxation at 100 uM incubated for 30 mins by DNA gel electrophoresis
Activity calls are given as the source filed them. The rule behind the calls is not given here.
The reply should name one outcome from y (active), n (inactive)

SMILES_ENTRY | CATEGORY
OCCc1cc(-c2ccc3cc(O)ccc3c2)ccc1O | n
CC[C@@]1(O)C(=O)OCc2c1cc1n(c2=O)Cc2cc3ccccc3nc2-1 | y
COc1cc(-c2ccc3cc(O)ccc3c2)cc(C=O)c1O | y

Prompt line: Record request — test call for O=Cc1cc(-c2ccc3cc(O)ccc3c2)ccc1O
Response line: y

Prompt line: Would you mind telling me which call this test gave CC(=O)c1cc(-c2ccc3cc(O)ccc3c2)cc([N+](=O)[O-])c1O ?
Response line: y

---

Test system: MDA-MB-231
Experiment: Cytotoxicity against human MDA-MB-231 cells after 72 hrs by sulforhodamine B assay
Assay type: functional, cell-based
Settings: MDA-MB-231, 72 h
PROPERTY: pIC50
The value called pIC50 is obtained by taking minus log10 of the concentration in mol/L.

Prompt line: # get_value(readout='pIC50', item= O=[N+]([O-])c1ccc(-c2ccc3cc(O)ccc3c2)cc1C(F)(F)F )
Response line: 5.35

---

Tested on: A549
Assay: Cytotoxicity against human A549 cells after 72 hrs by sulforhodamine B assay
Format: functional, cell-based
Conditions: A549, 72 h
PROPERTY: IC50

COMPOUND | RESULT_VALUE
CC(=O)c1cc(-c2ccc3cc(O)ccc3c2)cc([N+](=O)[O-])c1O | 4.2 µM

Turning now to a further compound:
Prompt line: Quick one: IC50 for COC(=O)c1ccc(O)c(-c2ccc3cc(OC)ccc3c2)c1 ?
Response line: > 20 µM

---

System: MDA-MB-231
Experiment: Cytotoxicity against human MDA-MB-231 cells after 72 hrs by sulforhodamine B assay
Type: functional, cell-based
Details: MDA-MB-231, 72 h
Items are presented alongside their recorded pIC50.
Bear in mind: pIC50 is minus log10 of a mol/L concentration; give just that figure.

Below, 10 compounds whose answers are already recorded.
COMPOUND | TARGET_DESC | RESULT_VALUE
COC(=O)Cc1cc(-c2ccc3cc(O)ccc3c2)ccc1O | MDA-MB-231 | 4.01
COC(=O)c1ccc(O)c(-c2ccc3cc(OC)ccc3c2)c1 | MDA-MB-231 | 4.44
COc1ccc2cc(-c3cc(C(C)=O)c(O)c([N+](=O)[O-])c3)ccc2c1 | MDA-MB-231 | 4.70
COC(=O)C(O)c1ccc(-c2ccc3cc(OC)ccc3c2)cc1 (stereo not drawn) | MDA-MB-231 | 4.62
COc1ccc2cc(-c3ccc(C(C)O)cc3)ccc2c1 (stereo not drawn) | MDA-MB-231 | 4.16
COc1ccc2cc(-c3ccc(OC(C)=O)c(COC(C)=O)c3)ccc2c1 | MDA-MB-231 | 4.09
O=Cc1ccc(O)c(-c2ccc3cc(O)ccc3c2)c1 | MDA-MB-231 | 5.49
COC(=O)c1cc(-c2ccc3cc(OC)ccc3c2)ccc1O | MDA-MB-231 | 4.09
O=Cc1cc(-c2ccc3cc(O)ccc3c2)ccc1O | MDA-MB-231 | 5.62
COc1ccc(-c2ccc3cc(O)ccc3c2)cc1OC | MDA-MB-231 | 4.77

Prompt line: Can you look up the measured pIC50 of COc1ccc2cc(-c3ccc(N)cc3)ccc2c1 for me?
Response line: 3.77

Prompt line: Item OCc1ccc(-c2ccc3cc(O)ccc3c2)cc1 has what recorded pIC50?
Response line: 4.53

---

System: A549
Assay: Cytotoxicity against human A549 cells after 72 hrs by sulforhodamine B assay
Format: functional, cell-based
Conditions: A549, 72 h
pIC50: −log10 of the molar value.
Each entry below carries its recorded pIC50.

Before answering, review these 2 worked examples.
COMPOUND | pIC50
COc1ccc2cc(-c3ccc(OC)c(OC)c3)ccc2c1 | < 4.70
O=Cc1cc(-c2ccc3cc(O)ccc3c2)ccc1O | 5.30

Note: attention shifts to another entry.
Prompt line: Please look up its pIC50: COc1ccc2cc(-c3cc(C(C)=O)c(O)c([N+](=O)[O-])c3)ccc2c1
Response line: < 4.70

Data origin: ChEMBL document CHEMBL3351570
